- System: SR leukemia
- Protocol Details: NCI tumour cell line growth inhibition, 48 h; in the data active = GI50 below about 0.43 µM; inactive = the rest
Outcome codes: active, inactive

# Molecule, Group Label
data = [
    ("C=C(CN1CCN(c2ccccn2)CC1)c1ccc(C(=O)Nc2ccccc2N)cc1", "inactive"),
    ("CCCCC[C@H]1C/C=C2/C(=O)C=C[C@@H]2C/C=C\\CCCC(=O)O1", "active"),
    ("COc1c(OC2OC(C)C(O)C(O)C2O)c(OC)c2oc(-c3ccc(O)cc3)cc(=O)c2c1O (stereo not given)", "inactive"),
    ("COc1cc(N)c(Cl)cc1C(=O)N[C@@H]1CCN(CCCOc2ccc(F)cc2)C[C@@H]1OC", "inactive"),
    ("Cn1cc(-c2csc(-c3ccc(Cl)cc3)n2)c2cccnc21", "inactive"),
]

Where these numbers come from: PubChem BioAssay (NCI)
